RUN_DESCRIPTION: molar heat capacity at constant pressure
ASSAY_CONTEXT: 318.2 K; 101.3 kPa; Liquid; Small sample (50 mg) DSC
MEASUREMENT_TYPE: molar heat capacity at constant pressure (J/K/mol)

Completed entries (count: 2):
| LINE_NOTATION | UNIT_ANNOTATION | molar heat capacity at constant pressure |
| --- | --- | --- |
| Cc1ccccc1 | J/K/mol | 163 |
| NCCN1CCNCC1 | J/K/mol | 294.7 |

P: CNCCN(C)C
Q: O
Hi, I'm comparing two records. Which one has the lower molar heat capacity at constant pressure, P or Q ? Selection: enter the item's label. Q
(Q: 75.31 J/K/mol, P: 265.3 J/K/mol)
